Provenance of the data: ChEMBL document CHEMBL6182880

System: HEK-293T
Experiment: Cytotoxicity against HEK293T cells assessed as reduction in cell viability at 40 uM measured after 48 hrs by MTT assay
Assay type: toxicity, cell-based
Conditions: human
Parameter: Activity

In the examples that follow, each entry is paired with its recorded Activity.
mol_smiles=O=c1cc(-c2ccccc2)oc2cc(OCCCCCCN3C[C@H](O)[C@@H](O)[C@H](O)[C@H]3CO)cc(O)c12 parameter=Activity measurement=Non-toxic
mol_smiles=O=c1c(O)c(-c2ccc(O)cc2)oc2cc(O)cc(OCCCCCCN3C[C@H](O)[C@@H](O)[C@H](O)[C@H]3CO)c12 parameter=Activity measurement=Non-toxic
mol_smiles=O=c1c(O)c(-c2ccc(O)cc2)oc2cc(O)cc(OCCCCCCCCCCN3C[C@H](O)[C@@H](O)[C@H](O)[C@H]3CO)c12 parameter=Activity measurement=Non-toxic
mol_smiles=O=c1c(OCCCCCCN2C[C@H](O)[C@@H](O)[C@H](O)[C@H]2CO)c(-c2ccccc2)oc2ccccc12 parameter=Activity measurement=Non-toxic
mol_smiles=O=c1cc(-c2ccc(O)c(O)c2)oc2cc(O)cc(OCCCCCCN3C[C@H](O)[C@@H](O)[C@H](O)[C@H]3CO)c12 parameter=Activity measurement=Non-toxic

Please state, for each entry, its recorded Activity.
1. O=c1cc(-c2ccccc2)oc2ccc(OCCCCCCCCCCN3C[C@H](O)[C@@H](O)[C@H](O)[C@H]3CO)cc12
2. O=c1cc(-c2ccccc2)oc2ccc(OCCCCCCN3C[C@H](O)[C@@H](O)[C@H](O)[C@H]3CO)cc12

Response:
1. Toxic
2. Toxic
